Recorded Stability, one value per entry.
# assay_explanation: Stability in mouse plasma assessed as compound remaining after 2 hrs
# Assay type: ADME, cell-free
# cond: 2 h
observable: Stability (%)

{"compound": "CC(=O)NC1[C@H](Oc2cccc(C#N)c2-c2cccc(NS(C)(=O)=O)c2)O[C@H](CO)[C@H](O)[C@@H]1O (single isomer, unassigned)", "observable": "Stability", "observed_value": 89}
{"compound": "CC(=O)N[C@H]1[C@H](Oc2cccc(C)c2-c2cccc(NS(=O)(=O)C3CC3)c2)O[C@H](CO)[C@H](O)[C@@H]1O", "observable": "Stability", "observed_value": 84}
{"compound": "CC(=O)NC1[C@H](Oc2cccc(C(F)(F)F)c2-c2cccc(NS(C)(=O)=O)c2)O[C@H](CO)[C@H](O)[C@@H]1O (single isomer, unassigned)", "observable": "Stability", "observed_value": 92}
{"compound": "CC(=O)N[C@H]1[C@H](Oc2cccc(C)c2-c2cccc(NS(C)(=O)=O)c2)O[C@H](CO)[C@H](O)[C@@H]1O", "observable": "Stability", "observed_value": 100}
{"compound": "CC(=O)N[C@H]1[C@H](Oc2cccc(F)c2-c2cccc(NS(C)(=O)=O)c2)O[C@H](CO)[C@H](O)[C@@H]1O", "observable": "Stability", "observed_value": 89}
